Just for reference, ChEMBL document CHEMBL3414436 is where these values come from.

# System: Escherichia coli
# testDescription: Antibacterial activity against Escherichia coli SK037 expressing TolC mutant measured for 24 hrs
# Assay type: functional
# conditionNotes: Escherichia coli, SK037, 24 h; read-out: MIC
Below, each entry is listed alongside its reported MIC.

In the examples that follow, each entry is paired with its recorded MIC.
- itemSmiles: "C(#Cc1ccc(C[n+]2cn(Cc3cccc(Cn4c[n+](Cc5ccc(C#Cc6ccccc6)cc5)c5ccccc54)n3)c3ccccc32)cc1)c1ccccc1.O=S(=O)([N-]S(=O)(=O)C(F)(F)F)C(F)(F)F.O=S(=O)([N-]S(=O)(=O)C(F)(F)F)C(F)(F)F"
  system: "Escherichia coli"
  MIC: "10 µM"
- itemSmiles: "C(#Cc1ccc(C[n+]2cn(-c3cccc(-n4c[n+](Cc5ccc(C#Cc6ccccc6)cc5)c5ccccc54)n3)c3ccccc32)cc1)c1ccccc1.[Br-].[Br-]"
  system: "Escherichia coli"
  MIC: "> 100 µM"
- itemSmiles: "C(#Cc1ccc(Cn2c[n+](Cc3ccc(C#Cc4ccccc4)cc3)c3ccccc32)cc1)c1ccccc1.O=S(=O)([N-]S(=O)(=O)C(F)(F)F)C(F)(F)F"
  system: "Escherichia coli"
  MIC: "25 µM"
- itemSmiles: "C(#Cc1ccc(C[n+]2cn(-c3cccc(-n4c[n+](Cc5ccc(C#Cc6ccccc6)cc5)c5ccccc54)n3)c3ccccc32)cc1)c1ccccc1.O=S(=O)([N-]S(=O)(=O)C(F)(F)F)C(F)(F)F.O=S(=O)([N-]S(=O)(=O)C(F)(F)F)C(F)(F)F"
  system: "Escherichia coli"
  MIC: "> 100 µM"
- itemSmiles: "C(#Cc1ccc(Cn2c[n+](Cc3ccc(C#Cc4ccccc4)cc3)c3ccccc32)cc1)c1ccccc1.[Br-]"
  system: "Escherichia coli"
  MIC: "> 100 µM"

Here is the next item to consider.
Ask: Which measured MIC value corresponds to "C(#Cc1ccc(C[n+]2cn(Cc3cccc(Cn4c[n+](Cc5ccc(C#Cc6ccccc6)cc5)c5ccccc54)n3)c3ccccc32)cc1)c1ccccc1.[Br-].[Br-]" ?
Reply: 10 µM
